molecular target: GlcNAc(b1-6)GalNAc; assay: glycan array binding signal (z-score within array); higher = stronger binding; conditions: glycan notation: IUPAC condensed, linker removed
Many of the other results were omitted from the sample, so the strongest signals are more common in it than they were.
Assay Readout: glycan array binding signal (z-score)

Binder: PNGase F (Flavobacterium meningosepticum) (protein) GIPAPADNTVNIKTFDKVKNAFGDGLSQSAEGTFTFPADVTAVKTIKMFIKNECPNKTCDEWDRYANVYVKNKTTGEWYEIGRFITPYWVGTEKLPRGLEIDVTDFKSLLSGNTELKIYTETWLAKGREYSVDFDIVYGTPDYKYSAVVPVVQYNKSSIDGVPYGKAHTLALKKNIQLPTNTEKAYLRTTISGWGHAKPYDAGSRGCAEWCFRTHTIAINNSNTFQHQLGALGCSANPINNQSPGNWTPDRAGWCPGMAVPTRIDVLNNSLIGSTFSYEYKFQNWTNNGTNGDAFYAISSFVIAKSNTPISAPVVTNLDPHHHHHH
Endpoint Value: -0.018

Binder: CBP21 (Serratia marcescens), O83009 (protein) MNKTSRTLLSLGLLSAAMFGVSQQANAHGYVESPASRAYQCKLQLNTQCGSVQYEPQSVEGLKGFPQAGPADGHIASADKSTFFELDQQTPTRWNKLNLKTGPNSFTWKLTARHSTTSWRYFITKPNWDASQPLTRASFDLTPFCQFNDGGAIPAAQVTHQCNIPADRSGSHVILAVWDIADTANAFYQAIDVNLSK
Endpoint Value: -0.697

Binder: AFCNVH (Aspergillus fumigatus) (protein) MSLRGFHTTCDTIVLKDKHILSSRCKRPDGTYSFSEIDLNDCLGNNNGKFVWGGESFVDSASQVNLALEGGEGRPMLHAQLNDWHGSVQSASVNLGECIQNEAGGLEYMHC
Endpoint Value: 1.1
